This collection of values is drawn from ChEMBL document CHEMBL1201862.

Can you tell me GI50 for the items I'm about to list?
System: KM12
method: NCI tumour cell line growth inhibition, 48 h
Active and inactive are the calls of the source. Cut-off read from the data, not from the text of the source: active = GI50 up to about 1.1 µM and inactive = higher. Where a SMILES comes first, the peptide text is derived from it. The star is where a group is joined. Cbz = O=C(OCc1ccccc1)*

C[C@H]1CCC/C=C/[C@@H]2C[C@H](OC3OC(CO)C(O)C(O)C3O)C[C@H]2[C@H](O)/C=C/C(=O)O1 (stereo partly specified) has a reported GI50 of 31.3 µM (inactive)

Fc1ccc(NC(=S)SCc2ccc3c(c2)OCO3)cc1F has a reported GI50 of 25.5 µM (inactive)

O=CCOCc1cc2c(cc1Br)OCO2 has a reported GI50 of 33 µM (inactive)

COc1ccc(/N=C\c2cc(OC)c(OC)c(OC)c2)cc1 has a reported GI50 of > 100 µM (inactive)

Cc1cccc(C)c1NC(=S)NC=C1C(=O)c2ccccc2C1=O has a reported GI50 of 2.83 µM (inactive)

N#C/N=[N+](\[O-])c1ccc(C(=O)O)cc1 has a reported GI50 of > 100 µM (inactive)

CCOC(=O)C(CC(=O)OC)NC(=O)C(CC(=O)OC)NC(=O)C(CC(=O)OC)NC(=O)C(CC(=O)OC)NC(=O)OCc1ccccc1 (stereo unspecified) (Cbz-D(OMe)D(OMe)D(OMe)D(OMe)-OEt; configuration not given here) has a reported GI50 of > 100 µM (inactive)

COC(=O)/C1=C/C=C\C[C@@]2(C)CC(c3ccoc3)OC(=O)[C@@H]2CC[C@H]1C (stereo partly specified) has a reported GI50 of > 25 µM (inactive)

Nc1c([N+](=O)[O-])cc2c3c(cccc13)CC2 has a reported GI50 of > 100 µM (inactive)

COc1ccc(/N=N/C(=N/NC(=O)c2cc(Cl)ccc2C(=O)c2ccccc2)c2ccc(N(CCC#N)CCC#N)cc2C)cc1 has a reported GI50 of 21.4 µM (inactive)

CC1CC(=O)Nc2cc(Cl)ccc2N1C(=O)C1CC1 (stereo unspecified) has a reported GI50 of > 100 µM (inactive)

O=c1[nH]nc(-c2ccccc2)n1/N=C/c1ccccc1Cl has a reported GI50 of 12 µM (inactive)

O=C(N[C@@H]1C=CCC[C@@H]1c1ccccc1)OCc1ccccc1 has a reported GI50 of 17.5 µM (inactive)

CC(=O)[C@@]1(c2ccccc2)CC2(CCN(C)CC2)O[C@H]1C has a reported GI50 of > 100 µM (inactive)

CCCCCCCCCCC(O)CCCCCCC(=O)O (stereo unspecified) has a reported GI50 of 16.3 µM (inactive)

COc1cc(C)cc(OC)c1/C=C/C(=O)O has a reported GI50 of > 100 µM (inactive)

c1ccc2c(c1)nnn2CNc1ccc(N2CCOCC2)cc1 has a reported GI50 of > 100 µM (inactive)

O=C(CC(C(=O)c1cccs1)c1ccc2c(c1)OCO2)c1ccccc1 (stereo unspecified) has a reported GI50 of > 100 µM (inactive)

COc1ccc2c(OC)c3ccoc3nc2c1O has a reported GI50 of > 100 µM (inactive)

NC(=O)CN1CCN(c2nc(N3CCCC3)c3nc(Cl)c(NCc4ccccc4)nc3n2)CC1 has a reported GI50 of 10.6 µM (inactive)

Cc1ccc(NC(=O)/C(=N\NC(N)=O)c2c(O)c3ccccc3[nH]c2=O)cc1 has a reported GI50 of > 100 µM (inactive)
